- Test system: transplantation tumor of human multiple myeloma MM.1S
- assay.text: Transplantation tumor model of human multiple myeloma cells MM.1S in CB17-SCID mouse, low dose 0.00554 mmol/kg (Activity Experiment Example 4)
- Assay type: in vivo
- condition.description: day 15; 0.00554 mmol/kg oral gavage twice a week
Structures can show the parent of a compound that is named as a salt. Marks after values point to notes of the source that are not given here.
measure: Relative tumor proliferation rate T/C(%)

Q. Request: Relative tumor proliferation rate T/C(%), test system transplantation tumor of human multiple myeloma MM.1S, entry "CC(C)C[C@H](NC(=O)CNC(=O)c1cc(Br)ccc1F)B1OC(=O)C(CC(=O)O)(CC(=O)O)O1"
A. 10.59^▴▴ %

Q. Request: Relative tumor proliferation rate T/C(%), test system transplantation tumor of human multiple myeloma MM.1S, entry "CC(C)C[C@H](NC(=O)CNC(=O)c1cc(Cl)ccc1F)B1OC(=O)C(CC(=O)O)(CC(=O)O)O1"
A. 45.35^▴▴ %

Q. Request: Relative tumor proliferation rate T/C(%), test system transplantation tumor of human multiple myeloma MM.1S, entry CC(C)C[C@H](NC(=O)CNC(=O)c1cc(Cl)ccc1Cl)B1OC(=O)C(CC(=O)O)(CC(=O)O)O1 [MLN9708, Ixazomib Citrate, reference compound]
A. 97.25%

Q. Request: Relative tumor proliferation rate T/C(%), test system transplantation tumor of human multiple myeloma MM.1S, entry CC(C)C[C@H](NC(=O)CNC(=O)c1cc(Br)ccc1F)B1OC(=O)C(c2ccccc2)O1 (stereo partly shown)
A. 30.15^▴▴ %
